tested on: A549; experiment: Antiproliferative activity against EGFR positive human A549 cells assessed as inhibition of cell growth incubated for 72 hrs by MTT assay; format: functional, cell-based; conditions: A549, 72 h
pIC50: −log10 of the molar value.
Each entry below carries its recorded pIC50.
recorded-endpoint: pIC50

{"columns": ["smiles-repr", "experimental-target", "censor-symbol", "quantitative-result"],
 "data": [
  ["CCOC(=O)c1c(CC)[nH]c2cc(Nc3ncc(Cl)c(Nc4ccccc4C(=O)NC)n3)ccc12", "A549", "=", 5.21],
  ["CCCc1[nH]c2cc(Nc3ncc(Cl)c(Nc4ccccc4C(=O)NC)n3)ccc2c1C(=O)OCC", "A549", "=", 5.11],
  ["Cc1[nH]c2cc(Nc3ncc(Cl)c(Nc4ccccc4NS(C)(=O)=O)n3)ccc2c1C(=O)N1CCN(CCO)CC1", "A549", "<", 4.70],
  ["CNC(=O)c1ccccc1Nc1nc(Nc2ccc3c(C(=O)N4CCC(C)CC4)c(C)[nH]c3c2)ncc1Cl", "A549", "<", 4.70],
  ["CNC(=O)c1ccccc1Nc1nc(Nc2ccc3c(C(=O)N4CCC(O)CC4)c(C)[nH]c3c2)ncc1Cl", "A549", "=", 5.72]
]}
